Origin of measurements: the supplement of paper PMC6897291

tested on: RIVA; experiment: growth inhibition by drug plus 177Lu-lilotomab satetraxetan (1 - RLU/untreated control) (fraction); higher = stronger inhibition; conditions: 100 nM; time (day): 4; 177Lu-lilotomab satetraxetan 0.5 ug/ml
Values of growth inhibition by drug plus 177Lu-lilotomab satetraxetan greater than or equal to 0.5 map to TRUE; values below map to FALSE.

Quick check, growth inhibition by drug plus 177Lu-lilotomab satetraxetan >= 0.5? O=C(O)c1ccc(-c2c[nH]c3ncc(-c4ccccc4)cc23)cc1C1CCCC1
FALSE

Then this compound: Cc1ccc(S(=O)(=O)C=CC#N)cc1
FALSE

Then this compound: CCOC(=O)[C@@H](C)Oc1cccc2c(=O)n(CC(=O)Nc3ccc4c(c3)OCCO4)ccc12
FALSE

Then this compound: C[S+]([O-])c1ccc(-c2nc(-c3ccc(F)cc3)c(-c3ccncc3)[nH]2)cc1 (stereo not drawn)
FALSE

Then this compound: CC[C@@H]1/C=C(\C)C[C@H](C)C[C@H](OC)[C@H]2O[C@@](O)(C(=O)C(=O)N3CCCC[C@H]3C(=O)O[C@H](/C(C)=C/[C@@H]3CC[C@H](Cl)[C@H](OC)C3)[C@H](C)[C@@H](O)CC1=O)[C@H](C)C[C@@H]2OC
TRUE

Then this compound: Nc1nc(Nc2ccc(S(N)(=O)=O)cc2)nn1C(=O)c1c(F)cccc1F
TRUE

----------
test system: U-2932; experiment: growth inhibition by drug alone (1 - RLU/untreated control) (fraction); higher = stronger inhibition; conditions: 1000 nM; time (day): 6; 177Lu-lilotomab satetraxetan 0 ug/ml
Could you please report measured growth inhibition by drug alone for the items listed next?
Number only, no unit.

Bench note: what growth inhibition by drug alone did CN(CCOc1ccc(CC2SC(=O)NC2=O)cc1)c1ccccn1 (centres undefined) [Rosiglitazone (Avandia)] show?
-0.236

Then this molecule: COc1ccc(-c2ccc3c(N4CCOC[C@@H]4C)nc(N4CCOC[C@@H]4C)nc3n2)cc1CO
0.909

Then this molecule: COc1cc(Nc2c(C#N)cnc3cc(OCCCN4CCN(C)CC4)c(OC)cc23)c(Cl)cc1Cl [Bosutinib (SKI-606)]
0.239

Then this molecule: Cc1c(C(=O)Nc2ccc(N3C[C@@H](C)O[C@@H](C)C3)nc2)cccc1-c1ccc(OC(F)(F)F)cc1 [LDE225 (NVP-LDE225, Erismodegib)]
-0.177

----------
tested on: U-2932; assay: growth inhibition by drug plus 177Lu-lilotomab satetraxetan (1 - RLU/untreated control) (fraction); higher = stronger inhibition; details: 1000 nM; time (day): 3; 177Lu-lilotomab satetraxetan 1 ug/ml
Structures can show the parent of a compound that is named as a salt.
Values of growth inhibition by drug plus 177Lu-lilotomab satetraxetan greater than or equal to 0.1 map to Y; values below map to N.

Quick check, growth inhibition by drug plus 177Lu-lilotomab satetraxetan >= 0.1? Cc1c(CCOc2ccc(C(=O)O)cc2)c2cc(Cl)ccc2n1C(c1ccccc1)c1ccccc1
N

Then this molecule: CN(C)C[C@@H]1CCn2cc(c3ccccc32)C2=C(C(=O)NC2=O)c2cn(c3ccccc23)CCO1
Y

Then this molecule: C=CCn1c(=O)c2cnc(Nc3ccc(N4CCN(C)CC4)cc3)nc2n1-c1cccc(C(C)(C)O)n1
Y

Then this molecule: N#Cc1ccc(NC(=O)Nc2ccccc2Br)c2n[nH]nc12
N

Then this molecule: COc1cc(C(=O)NC(=S)Nc2cccc(NC(=O)c3ccccc3)c2)cc(OC)c1OC
N

Then this molecule: C[C@@H](Oc1cc(-c2cnn(C3CCNCC3)c2)cnc1N)c1c(Cl)ccc(F)c1Cl
Y

Then this molecule: CC[C@H](CO)Nc1nc(NCc2ccccc2)c2ncn(C(C)C)c2n1 [Roscovitine (Seliciclib, CYC202)]
N

Then this molecule: COc1cc([C@@H]2c3cc4c(cc3[C@@H](O[C@@H]3O[C@@H]5CO[C@@H](C)O[C@H]5[C@H](O)[C@H]3O)[C@H]3COC(=O)[C@H]23)OCO4)cc(OC)c1O [Etoposide (VP-16)]
Y

Then this molecule: CN(C)Cc1c(C(=O)NCCOc2ccc(C(=O)NO)cc2)oc2ccccc12
Y

Then this molecule: COc1cccc2c1C(=O)c1c(O)c3c(c(O)c1C2=O)C[C@@](O)(C(=O)CO)C[C@@H]3O[C@H]1C[C@H](N)[C@@H](O)[C@H](C)O1 [Epirubicin Hydrochloride]
Y

Then this molecule: CC(C)(C#N)c1cc(Cn2cncn2)cc(C(C)(C)C#N)c1 [Anastrozole]
N

Then this molecule: CCCCc1nc2cc(/C=C/C(=O)NO)ccc2n1CCN(CC)CC [SB939 (Pracinostat)]
Y

Then this molecule: CO[C@H]1C[C@@H]2CC[C@@H](C)[C@@](O)(O2)C(=O)C(=O)N2CCCC[C@H]2C(=O)O[C@H]([C@H](C)C[C@@H]2CC[C@@H](OCCO)[C@H](OC)C2)CC(=O)[C@H](C)/C=C(\C)[C@@H](O)[C@@H](OC)C(=O)[C@H](C)C[C@H](C)/C=C/C=C/C=C/1C [Everolimus (RAD001)]
Y

Then this molecule: Cc1ccc(S(=O)(=O)C=CC#N)cc1
N

Then this molecule: NC(=O)c1ccc(I)c([N+](=O)[O-])c1 [Iniparib (BSI-201)]
N

Then this molecule: Nc1nc(Cl)nc2c1ncn2[C@H]1C[C@H](O)[C@@H](CO)O1 [Cladribine]
Y
